self-splicing fitness (ln) reference
- protocol_summary: self-splicing fitness, log relative to wild type (ln ratio); higher = more splicing; Tetrahymena group I intron in knt gene, E. coli kanamycin selection, DiMSum; sequences stand for … in CUCUCU…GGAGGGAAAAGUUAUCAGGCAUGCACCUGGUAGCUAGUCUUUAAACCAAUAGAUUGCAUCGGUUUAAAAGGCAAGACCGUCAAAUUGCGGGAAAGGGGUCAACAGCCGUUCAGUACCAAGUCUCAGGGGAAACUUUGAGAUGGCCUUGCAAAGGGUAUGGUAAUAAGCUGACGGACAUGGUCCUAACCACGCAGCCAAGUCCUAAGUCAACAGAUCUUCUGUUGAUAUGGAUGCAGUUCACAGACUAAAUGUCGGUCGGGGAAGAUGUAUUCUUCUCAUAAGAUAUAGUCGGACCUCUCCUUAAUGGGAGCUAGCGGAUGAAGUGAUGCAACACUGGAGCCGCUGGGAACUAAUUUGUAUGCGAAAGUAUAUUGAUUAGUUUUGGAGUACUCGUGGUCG;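 also: selection with 25 µg/mL kanamycin versus none on LB agar overnight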
- assay_context: 30 °C
// print number alone

Recorded self-splicing fitness (ln), per entry:
residues: CGAAAGCAAUAUUACGGCUC
self-splicing fitness (ln): -2.88
--
residues: AUUAAGCAAUAUUACGUCUA
self-splicing fitness (ln): -0.611

### Prompt Recorded self-splicing fitness (ln) for CUGCAGCAAUAUUACGCGUC , please?
### Response -3.98

### Prompt Recorded self-splicing fitness (ln) for GCGCAGCAAUAUUACGCAUG , please?
### Response -3.37

### Prompt Recorded self-splicing fitness (ln) for CUGUAGCAAUAUUACGCUCG , please?
### Response -1

### Prompt Recorded self-splicing fitness (ln) for AAGGAGCAAUAUUACGCAUU , please?
### Response -2.8

### Prompt Recorded self-splicing fitness (ln) for GCUUAGCAAUAUUACGUGGG , please?
### Response -1.53

### Prompt Recorded self-splicing fitness (ln) for GCGGAGCAAUAUUACGUCAG , please?
### Response -3.19

### Prompt Recorded self-splicing fitness (ln) for AACAAGCAAUAUUACGCUAG , please?
### Response -3.74

### Prompt Recorded self-splicing fitness (ln) for CCGCAGCAAUAUUACGGACG , please?
### Response -2.13

### Prompt Recorded self-splicing fitness (ln) for UUCUAGCAAUAUUACGGUUU , please?
### Response -2.05

### Prompt Recorded self-splicing fitness (ln) for UCUGAGCAAUAUUACGGCAG , please?
### Response -1.8

### Prompt Recorded self-splicing fitness (ln) for CCAUAGCAAUAUUACGUAUG , please?
### Response -3.88

### Prompt Recorded self-splicing fitness (ln) for AGGCAGCAAUAUUACGGUUC , please?
### Response -1.43
